Hey, just so you know, these numbers are from BigSolDB 2.1.

- assay_setup: in water, 288.2 K
endpoint_name: solubility (mole fraction)
// keep it numeric: no unit symbol after the value

Input: Quick one: give measured solubility (mole fraction) for O=C(O)[C@@H](O)CCc1ccccc1
Output: 0.00094

###

- assay_setup: in water, 323.2 K
endpoint_name: solubility (mole fraction)

Input: Quick one: give measured solubility (mole fraction) for O=C(O)[C@@H](O)CCc1ccccc1
Output: 0.00701

###

- assay_setup: in toluene, 318.2 K
endpoint_name: solubility (mole fraction)
// keep it numeric: no unit symbol after the value

Input: Quick one: give measured solubility (mole fraction) for O=C(O)[C@@H](O)CCc1ccccc1
Output: 0.00729

###

- assay_setup: in toluene, 338.2 K
endpoint_name: solubility (mole fraction)
// keep it numeric: no unit symbol after the value

Input: Quick one: give measured solubility (mole fraction) for O=C(O)[C@@H](O)CCc1ccccc1
Output: 0.0238

###

- assay_setup: in ethyl acetate, 308.2 K
endpoint_name: solubility (mole fraction)

Input: Quick one: give measured solubility (mole fraction) for O=C(O)[C@@H](O)CCc1ccccc1
Output: 0.174

###

- assay_setup: in ethyl acetate, 293.2 K
endpoint_name: solubility (mole fraction)

Input: Quick one: give measured solubility (mole fraction) for O=C(O)[C@@H](O)CCc1ccccc1
Output: 0.14

###

- assay_setup: in water, 313.2 K
endpoint_name: solubility (mole fraction)
// keep it numeric: no unit symbol after the value

Input: Quick one: give measured solubility (mole fraction) for O=C(O)[C@@H](O)CCc1ccccc1
Output: 0.00311

###

- assay_setup: in water, 293.2 K
endpoint_name: solubility (mole fraction)
// keep it numeric: no unit symbol after the value

Input: Quick one: give measured solubility (mole fraction) for O=C(O)[C@@H](O)CCc1ccccc1
Output: 0.00107

###

- assay_setup: in toluene, 323.2 K
endpoint_name: solubility (mole fraction)
// keep it numeric: no unit symbol after the value

Input: Quick one: give measured solubility (mole fraction) for O=C(O)[C@@H](O)CCc1ccccc1
Output: 0.00996

###

- assay_setup: in ethyl acetate, 313.2 K
endpoint_name: solubility (mole fraction)
// keep it numeric: no unit symbol after the value

Input: Quick one: give measured solubility (mole fraction) for O=C(O)[C@@H](O)CCc1ccccc1
Output: 0.182

###

- assay_setup: in ethyl acetate, 278.2 K
endpoint_name: solubility (mole fraction)
// keep it numeric: no unit symbol after the value

Input: Quick one: give measured solubility (mole fraction) for O=C(O)[C@@H](O)CCc1ccccc1
Output: 0.107

###

- assay_setup: in toluene, 288.2 K
endpoint_name: solubility (mole fraction)
// keep it numeric: no unit symbol after the value

Input: Quick one: give measured solubility (mole fraction) for O=C(O)[C@@H](O)CCc1ccccc1
Output: 0.0013

###

- assay_setup: in ethyl acetate, 283.2 K
endpoint_name: solubility (mole fraction)
// keep it numeric: no unit symbol after the value

Input: Quick one: give measured solubility (mole fraction) for O=C(O)[C@@H](O)CCc1ccccc1
Output: 0.117

###

- assay_setup: in ethyl acetate, 288.2 K
endpoint_name: solubility (mole fraction)
// keep it numeric: no unit symbol after the value

Input: Quick one: give measured solubility (mole fraction) for O=C(O)[C@@H](O)CCc1ccccc1
Output: 0.128

###

- assay_setup: in toluene, 313.2 K
endpoint_name: solubility (mole fraction)

Input: Quick one: give measured solubility (mole fraction) for O=C(O)[C@@H](O)CCc1ccccc1
Output: 0.00555
